# ASSAY_INFO: in vivo
# EXPERIMENTAL_SETUP: horse, in vivo, im, 10 mg/kg, Mean half-life
READOUT_TYPE: half-life

Recorded half-life (compound COc1ccc2nc([S@@+]([O-])Cc3ncc(C)c(OC)c3C)[nH]c2c1 ): 11.6 to 24.5 h
